// provenance: patent US8575144B2

- TARGET OR SYSTEM: AmpC β-lactamase (Pseudomonas aeruginosa, UniProt P24735)
- Sequence (P24735 27-397): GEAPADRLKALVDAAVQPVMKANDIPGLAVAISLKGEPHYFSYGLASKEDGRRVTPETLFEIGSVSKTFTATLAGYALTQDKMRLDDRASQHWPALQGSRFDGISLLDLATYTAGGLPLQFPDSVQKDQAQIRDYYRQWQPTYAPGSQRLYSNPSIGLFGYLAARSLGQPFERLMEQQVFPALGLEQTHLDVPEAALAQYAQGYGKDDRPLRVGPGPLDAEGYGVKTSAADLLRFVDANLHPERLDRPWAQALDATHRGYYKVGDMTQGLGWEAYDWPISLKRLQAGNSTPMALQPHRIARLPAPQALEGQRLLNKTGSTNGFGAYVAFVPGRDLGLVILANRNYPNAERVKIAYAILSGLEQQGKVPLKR
- PROTOCOL TEXT: Inhibition of representative β-lactamases: AmpC P. aeruginosa in serum
- Format: biochemical
QUANTITY MEASURED: IC50
The answer consists of two parts: a number and, after it, its unit.

Fill in the blank: the reported IC50 of C[C@]1(COC(=O)Cc2ccc(O)c(O)c2)[C@H](C(=O)O)N2C(=O)/C(=C/c3ccccn3)[C@H]2S1(=O)=O is ____.
82 nM

###

- TARGET OR SYSTEM: OXA-40 β-lactamase (Acinetobacter baumannii, UniProt Q8RLA6)
- Sequence (Q8RLA6 22-275): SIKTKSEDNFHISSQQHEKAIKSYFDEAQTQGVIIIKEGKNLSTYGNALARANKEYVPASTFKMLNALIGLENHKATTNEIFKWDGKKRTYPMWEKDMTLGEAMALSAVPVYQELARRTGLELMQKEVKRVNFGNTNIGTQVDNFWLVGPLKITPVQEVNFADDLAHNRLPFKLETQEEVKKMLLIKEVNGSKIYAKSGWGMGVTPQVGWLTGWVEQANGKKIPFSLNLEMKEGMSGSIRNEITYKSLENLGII
QUANTITY MEASURED: pIC50
In textbook form, pIC50 equals minus log to base ten of the concentration in mol/L.

Fill in the blank: the reported pIC50 of C[C@]1(COC(=O)Cc2ccc(O)c(O)c2)[C@H](C(=O)O)N2C(=O)/C(=C/c3ccccn3)[C@H]2S1(=O)=O is ____.
7.96
